# TARGET_OF_ASSAY: Solute carrier family 15 member 2 (Rattus norvegicus)
# Sequence (Q63424 whole entry): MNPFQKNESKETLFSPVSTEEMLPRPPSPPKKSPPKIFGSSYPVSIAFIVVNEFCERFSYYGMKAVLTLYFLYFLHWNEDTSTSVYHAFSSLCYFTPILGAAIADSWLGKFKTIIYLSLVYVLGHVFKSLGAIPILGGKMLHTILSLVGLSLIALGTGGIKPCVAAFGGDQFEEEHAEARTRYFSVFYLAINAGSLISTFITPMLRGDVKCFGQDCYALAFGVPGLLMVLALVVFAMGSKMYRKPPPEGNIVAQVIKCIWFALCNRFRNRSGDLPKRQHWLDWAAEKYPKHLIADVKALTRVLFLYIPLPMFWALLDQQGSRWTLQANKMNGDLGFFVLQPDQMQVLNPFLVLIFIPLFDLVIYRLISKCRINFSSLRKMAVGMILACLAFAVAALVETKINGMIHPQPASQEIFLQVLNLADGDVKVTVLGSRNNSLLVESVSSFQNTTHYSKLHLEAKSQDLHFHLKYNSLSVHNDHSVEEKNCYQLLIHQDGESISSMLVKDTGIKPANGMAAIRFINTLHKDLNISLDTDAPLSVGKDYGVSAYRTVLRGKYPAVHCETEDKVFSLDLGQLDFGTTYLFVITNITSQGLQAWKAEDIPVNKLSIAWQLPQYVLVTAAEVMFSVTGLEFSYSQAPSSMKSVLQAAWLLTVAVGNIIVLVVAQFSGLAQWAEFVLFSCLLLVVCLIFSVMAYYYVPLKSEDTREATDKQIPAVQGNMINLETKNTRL
# TEST: TP_TRANSPORTER: inhibition of Gly-Sar uptake in PEPT2-expressing LLC-PK1 cells
Peptide text beside a SMILES is read from it.
READOUT_LABEL: Ki (µM)

(1) CC(C)C[C@H](NC(=O)[C@@H](O)[C@H](N)Cc1ccccc1)C(=O)O
(2) NCC(=O)NCC(=O)N[C@@H](Cc1ccccc1)C(=O)O (H-Gly-Gly-Phe-OH)
Between 1 and 2 , which one has the lower reported Ki value? Let me know the label of the one you choose.
1

(P) NCC(=O)N[C@@H](CC(=O)O)C(=O)O (H-Gly-Asp-OH)
(Q) NCC(=O)CCC(=O)O
Which numeric Ki is bigger, that of P or that of Q ? Let me know the label of the one you choose.
Q

(P) NCCCC[C@H](N)C(=O)NCC(=O)O (H-Lys-Gly-OH)
(Q) N[C@@H](CC(=O)O)C(=O)NCC(=O)O (H-Asp-Gly-OH)
(R) O=C(O)CNC(=O)[C@@H]1CCCN1 (H-Pro-Gly-OH)
(S) N[C@@H](CC(=O)NCC(=O)O)C(=O)O
Rank the 4 compounds: largest Ki first, smallest last. Use the labels to give the requested order.
S, R, Q, P

(A) C[C@H](N)C(=O)Nc1ccc([N+](=O)[O-])cc1
(B) CSCC[C@H](NC=O)C(=O)N[C@@H](C)C(=O)O (HELM PEPTIDE1{[O=C[*:2]].M.A}$$$$V2.0)
Which numeric Ki is bigger, that of A or that of B ? Let me know the label of the one you choose.
B

(1) NCC(=O)NCC(=O)NCC(=O)O
(2) NCC(=O)N[C@@H](Cc1ccccc1)C(=O)O (H-Gly-Phe-OH)
(3) NCCC(=O)N[C@@H](Cc1cnc[nH]1)C(=O)O
(4) CSCC[C@H](N)C(=O)N[C@@H](C)C(=O)O (H-Met-Ala-OH)
Which order do these items take when sorted by rising Ki? List them. Use the labels to give the requested order.
2, 4, 3, 1
